- SYSTEM: COX-1 (Homo sapiens, UniProt P23219)
- Sequence (P23219 24-599): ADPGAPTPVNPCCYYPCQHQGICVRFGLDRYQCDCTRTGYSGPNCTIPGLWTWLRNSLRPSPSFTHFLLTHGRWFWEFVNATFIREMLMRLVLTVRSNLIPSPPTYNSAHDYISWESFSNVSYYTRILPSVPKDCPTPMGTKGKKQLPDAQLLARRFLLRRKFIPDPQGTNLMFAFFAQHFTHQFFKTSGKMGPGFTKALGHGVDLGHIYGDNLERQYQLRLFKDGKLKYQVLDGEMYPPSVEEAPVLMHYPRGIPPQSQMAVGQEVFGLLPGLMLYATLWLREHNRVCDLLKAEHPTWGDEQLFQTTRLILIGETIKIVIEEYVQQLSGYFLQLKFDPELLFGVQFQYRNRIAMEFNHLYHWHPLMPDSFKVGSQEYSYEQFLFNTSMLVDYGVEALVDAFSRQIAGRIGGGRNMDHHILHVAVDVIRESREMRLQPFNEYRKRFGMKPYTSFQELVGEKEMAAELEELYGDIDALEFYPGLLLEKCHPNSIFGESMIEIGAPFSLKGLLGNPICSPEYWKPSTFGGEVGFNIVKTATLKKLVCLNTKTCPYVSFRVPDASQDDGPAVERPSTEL
- ASSAY_DETAILS: Human whole blood assay, COX-1 (clotting-induced TxB2 production)
- Type: cell-based
- Set-up: platelets in whole blood contain a large amount of the COX-1 enzyme; endogenous in cells; host or cells: platelets in fresh human whole blood, clotting
- ASSAY_SETUP: human whole blood, clotting-induced TxB2, 1 h; read-out: COX-1 (IC50 mM) HWB
# IC50 per record follows
Number only, in mM; omit the unit.

In [3]: df
Out[3]:
                                   compound  property_measured  unit_string  value
0  CC(C)(O)CSc1ncc(C(F)(F)F)cc1-c1ccc(S(C)(=O)=O)cc1 [Example 43]               IC50           mM  0.039

Please examine the following record next.
IC50 for CC(C)(O)/C=C\c1ncc(Cl)cc1-c1ccc(S(C)(=O)=O)cc1 [Example 51] is 0.01

Values compiled from patent US6046217A.
